observed_property: melting point

input: melting point for NC(=O)c1ncn(CCN2CCOCC2)c1C(N)=O ?
output: 196 to 197 °C

input: melting point for NC(=O)c1ncn(CCN2CCCCC2)c1C(N)=O ?
output: 200 to 201 °C

input: melting point for N=c1[nH]c(=O)c2ncn(CCN3CCOCC3)c2c(=O)[nH]1 ?
output: > 300 °C

input: melting point for N=c1[nH]c(=O)c2ncn(CCN3CCCCC3)c2c(=O)[nH]1 ?
output: > 300 °C

input: melting point for CN(C)CCCn1cnc(C(N)=O)c1C(N)=O ?
output: 205 to 210 °C

input: melting point for COC(=O)c1ncn(CCN2CCOCC2)c1C(=O)NC(=N)NC(=O)Nc1ccccc1F ?
output: > 164 °C
